System: Phospholipidosis
assay details: Literature-mined public compounds from Lowe et al phospholipidosis modelling dataset
reported metric: Phospholipidosis

compound	Phospholipidosis
CCCCc1oc2ccccc2c1C(=O)c1cc(I)c(OCCN(CC)CC)c(I)c1	Positive
CNS(=O)(=O)Cc1ccc2[nH]cc(CCN(C)C)c2c1	Negative
CN1CCCN(C(c2ccccc2)c2ccc(Cl)cc2)CC1 (stereo not drawn)	Positive
CCCC[C@@H]1CC(=O)[C@]2(O)O[C@@H]3[C@@H](NC)[C@@H](O)[C@@H](NC)[C@H](O)[C@H]3O[C@@H]2O1	Positive
O=C(O)CCCCCCNC1c2ccccc2CCc2ccccc21	Negative

# map each compound to its Phospholipidosis
1. CN(Cc1cnc2nc(N)nc(N)c2n1)c1ccc(C(=O)N[C@@H](CCC(=O)O)C(=O)O)cc1 [METHOTREXATE]
2. CN1CCN(C(c2ccccc2)c2ccc(Cl)cc2)CC1 (stereo not drawn)

(A)
1: Negative; 2: Positive

# map each compound to its Phospholipidosis
1. CCC(c1ccc(OCCN(CC)CC)cc1)C(CC)c1ccc(OCCN(CC)CC)cc1 (stereo not drawn)
2. CC/C(=C(\c1ccccc1)c1ccc(OCCN(C)C)cc1)c1ccccc1
3. CCCNCCc1ccc(NS(=O)(=O)c2ccc(OC(F)(F)F)cc2)cc1

(A)
1: Positive; 2: Positive; 3: Positive

# map each compound to its Phospholipidosis
1. CCC1(c2ccccc2)C(=O)NC(=O)NC1=O
2. NC[C@@H]1CC[C@@H](N)[C@@H](O[C@H]2[C@H](O)[C@@H](O[C@H]3O[C@H](CO)[C@@H](O)[C@H](N)[C@H]3O)[C@H](N)C[C@@H]2N)O1
3. NC(=O)c1ccccc1 [BENZAMIDE]
4. NCCc1cc(O)c(O)cc1O
5. NC12CC3CC(CC(C3)C1)C2
6. CN1CCN(C(c2ccccc2)c2ccccc2)CC1
7. CC(Cc1ccccc1)NCCC(c1ccccc1)c1ccccc1 (stereo not drawn)

(A)
1: Negative; 2: Positive; 3: Positive; 4: Positive; 5: Positive; 6: Positive; 7: Positive

(Q) Determine its reported Phospholipidosis: CC(CN(C)C)CN1c2ccccc2CCc2ccccc21 (stereo not drawn)
(A) Positive
